Would you mind telling me the reported 8OG:A repair function score of each entry?
B1: library; numbered along this chain (parent)
chain: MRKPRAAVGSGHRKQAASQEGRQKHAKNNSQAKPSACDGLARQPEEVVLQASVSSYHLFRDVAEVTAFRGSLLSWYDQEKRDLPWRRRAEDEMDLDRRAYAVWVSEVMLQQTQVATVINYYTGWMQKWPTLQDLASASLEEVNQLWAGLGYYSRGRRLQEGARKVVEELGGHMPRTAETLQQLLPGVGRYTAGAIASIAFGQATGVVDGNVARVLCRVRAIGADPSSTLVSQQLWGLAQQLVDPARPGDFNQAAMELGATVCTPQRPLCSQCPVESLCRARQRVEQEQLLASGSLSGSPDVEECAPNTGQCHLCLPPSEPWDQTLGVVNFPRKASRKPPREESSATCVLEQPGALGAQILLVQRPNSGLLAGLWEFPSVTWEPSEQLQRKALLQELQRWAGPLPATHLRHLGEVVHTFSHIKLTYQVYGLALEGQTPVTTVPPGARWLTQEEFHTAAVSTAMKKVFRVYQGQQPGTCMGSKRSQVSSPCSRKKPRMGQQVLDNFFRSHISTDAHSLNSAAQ

variants of: B1; experiment: 8OG:A repair function score (normalized; synonymous = 0, nonsense = -1) (normalized log-likelihood score); higher = more repair activity (WT-like); conditions: with 8OG:A DNA repair reporter (GFP) in HEK-293 MUTYH KO cells;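 also: cells sorted at 72 h after reporter transfection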
Give bare numbers.

{"variant annotation": "S292M", "measured parameter": "8OG:A repair function score", "data value": -0.0481}
{"variant annotation": "V107L", "measured parameter": "8OG:A repair function score", "data value": -0.266}
{"variant annotation": "L169R", "measured parameter": "8OG:A repair function score", "data value": -0.105}
{"variant annotation": "T66I", "measured parameter": "8OG:A repair function score", "data value": -0.0285}
{"variant annotation": "E342D", "measured parameter": "8OG:A repair function score", "data value": 0.0832}
{"variant annotation": "Q473D", "measured parameter": "8OG:A repair function score", "data value": -0.0165}
{"variant annotation": "V62E", "measured parameter": "8OG:A repair function score", "data value": -0.456}
{"variant annotation": "E167K", "measured parameter": "8OG:A repair function score", "data value": 0.0784}
{"variant annotation": "T440H", "measured parameter": "8OG:A repair function score", "data value": -0.111}
{"variant annotation": "V102P", "measured parameter": "8OG:A repair function score", "data value": -1.21}

Kindly give each listed record's 8OG:A repair function score.
1. H420R
2. T122M
3. Q435H
4. T176A
5. L49C
6. L370K

Reply text:
-0.393
-0.388
0.148
-0.251
0.125
-0.936
